Record form. Attribute: Residual turnover [%]. Fill in for each entry.
Test system: HPPD polypeptides
Assay: coupled HPPD activity assay: turnover and residual turnover in crude extracts
Format: biochemical, Pseudomonas fluorescens
Details: 100 μM Cmpd. 1; signal change with inhibitor divided by signal change without inhibitor
Please don't drop the unit; write it after the number.

Exercise: Given the entry 46 (protein, mutant HPPD polypeptide) MADLYENPMGLMGFEFIEFASPTPGTLEPIFEIMGFTKVATHRSKNVHLYRQGEINLILNNEPNSIASYFAAEHGPSVCGMAFRVKDSQKAYNRALELGAQPIHIDTGPMELNLPAIKGIGGAPLYLIDRFGEGSSIYDIDFVYLEGVERNPVGAGLKVIDHLTHNVYRGRMVYWANFYEKLFNFREARYFDIKGEYTGLTSKAMSAPDGMIRIPLNEESSKGAGQIEEFLMQFNGEGIQHVAFLTDDLVKTWDALKKIGMRFMTAPGDNYYEMLEGRLPDHGEPVDQLQARGILLDGSSVEGDKRLLLQIFSETLMGPVFFEFIQRKGDDGFGPHSFKVLFEQVERDQVRRGVLTAD , report its measured Residual turnover [%].
Solution: 55%

Exercise: Given the entry 8 (protein, mutant HPPD polypeptide) MADLYENPMGLMGFEFIEFASPTPGTLEPIFEIMGFTKVATHRSKNVHLYRQGEINLILNNEPNSIASYFAAEHGPSVCGMAFRVKDSQKAYNRALELGAQPIHIDTGPMELNLPAIKGIGGAPLYLIDRFGEGSSIYDIDFVYLEGVERNPVGAGLKVIDHLTHNVYRGRMVYWANFYEKLFNFREARYFDIKGEYTGLTSKAMSAPDGMIRIPLNEESSKGAGQIEEFLMQFNGEGIQHVAFLTDDLVKTWDALKKIGMRFMTAPPDNYYEMLEGRLPDHGEPVDQLQARGILLDGSSVEGDKRLLLQIFSETLMGPVFFEFIQRKGDDGFGPDSFKVLFESIERDQVRRGVLTAD , report its measured Residual turnover [%].
Solution: 50%
